# IC50 per entry for UniProt Q96KQ7

Worked examples follow.
COc1cc2c(NC3CCC34CCNCC4)cc(-c3ccc(C)o3)nc2cc1OCCCN1CCCC1 (stereo not drawn) = < 0.1 µM
CCc1ccc(-c2cc(NC3CCN(C)CC3)c3cc(OC)c(OCC4CCNCC4)cc3n2)o1 = 1 to 10 µM
CCc1ccc(-c2cc(NC3CC4(CCNCC4)C3)c3cc(OC)c(OCCCN4CCCC4)cc3n2)o1 = < 0.1 µM
COc1cc2c(NC3CCN(C)CC3)cc(-c3cccnc3)nc2cc1OCCCN1CCCC1 = < 0.1 µM
COc1cc2c(NCCC(F)(F)F)cc(-c3ccc(C)o3)nc2cc1OCCCN1CCCC1 = 0.1 to 0.5 µM

We now examine a further compound.
UniProt Q96KQ7 data for COc1cc2c(NC3CCN(C)CC3)cc(C3=CCCCC3)nc2cc1OCCCN1CCCC1 ; its IC50: < 0.1 µM

---

Catalogue of GI50 values
System: HepG2
Assay: Cell proliferation assay, HepG2 (HCC)
Format: cell-based
Conditions: Homo sapiens, 48 hours of treatment, Table 3

Worked examples follow.
COc1cc2c(NC3CCN(C)CC3)cc(-c3ccc(C)o3)nc2cc1OCCCN1CCCC1.O=C(O)C(F)(F)F = 100 to 1000 nM
COc1cc2c(NC3CC4(CCN(C)CC4)C3)cc(-c3ccc(C)o3)nc2cc1OCCCN1CCCC1 = 1000 to 10000 nM
CCc1ccc(-c2cc(NC3CC4CCC(C3)N4C)c3cc(OC)c(OCCCN4CCCC4)cc3n2)o1 (stereo not shown) = 1000 to 10000 nM
CCc1ccc(-c2cc(NCC3CCN(C)CC3)c3cc(OC)c(OCCCN4CCCC4)cc3n2)o1 = < 100 nM
COc1cc2c(NC3CCN(C)CC3)cc(-c3ccc(C)o3)nc2cc1OC1CC2(C1)CN(C)C2 = 100 to 1000 nM

HepG2 data for COc1cc2c(NC3CCN(C)CC3)cc(-c3ccc(C)o3)nc2cc1OC1CC2(CNC2)C1 ; its GI50: ≤ 10000 nM

HepG2 data for CCc1ccc(-c2cc(NC3C4CCC3CN(C)C4)c3cc(OC)c(OCCCN4CCCC4)cc3n2)o1 (stereo not shown) ; its GI50: 100 to 1000 nM

---

Target: DNMT1 (Homo sapiens, UniProt P26358)
Sequence (P26358 whole entry): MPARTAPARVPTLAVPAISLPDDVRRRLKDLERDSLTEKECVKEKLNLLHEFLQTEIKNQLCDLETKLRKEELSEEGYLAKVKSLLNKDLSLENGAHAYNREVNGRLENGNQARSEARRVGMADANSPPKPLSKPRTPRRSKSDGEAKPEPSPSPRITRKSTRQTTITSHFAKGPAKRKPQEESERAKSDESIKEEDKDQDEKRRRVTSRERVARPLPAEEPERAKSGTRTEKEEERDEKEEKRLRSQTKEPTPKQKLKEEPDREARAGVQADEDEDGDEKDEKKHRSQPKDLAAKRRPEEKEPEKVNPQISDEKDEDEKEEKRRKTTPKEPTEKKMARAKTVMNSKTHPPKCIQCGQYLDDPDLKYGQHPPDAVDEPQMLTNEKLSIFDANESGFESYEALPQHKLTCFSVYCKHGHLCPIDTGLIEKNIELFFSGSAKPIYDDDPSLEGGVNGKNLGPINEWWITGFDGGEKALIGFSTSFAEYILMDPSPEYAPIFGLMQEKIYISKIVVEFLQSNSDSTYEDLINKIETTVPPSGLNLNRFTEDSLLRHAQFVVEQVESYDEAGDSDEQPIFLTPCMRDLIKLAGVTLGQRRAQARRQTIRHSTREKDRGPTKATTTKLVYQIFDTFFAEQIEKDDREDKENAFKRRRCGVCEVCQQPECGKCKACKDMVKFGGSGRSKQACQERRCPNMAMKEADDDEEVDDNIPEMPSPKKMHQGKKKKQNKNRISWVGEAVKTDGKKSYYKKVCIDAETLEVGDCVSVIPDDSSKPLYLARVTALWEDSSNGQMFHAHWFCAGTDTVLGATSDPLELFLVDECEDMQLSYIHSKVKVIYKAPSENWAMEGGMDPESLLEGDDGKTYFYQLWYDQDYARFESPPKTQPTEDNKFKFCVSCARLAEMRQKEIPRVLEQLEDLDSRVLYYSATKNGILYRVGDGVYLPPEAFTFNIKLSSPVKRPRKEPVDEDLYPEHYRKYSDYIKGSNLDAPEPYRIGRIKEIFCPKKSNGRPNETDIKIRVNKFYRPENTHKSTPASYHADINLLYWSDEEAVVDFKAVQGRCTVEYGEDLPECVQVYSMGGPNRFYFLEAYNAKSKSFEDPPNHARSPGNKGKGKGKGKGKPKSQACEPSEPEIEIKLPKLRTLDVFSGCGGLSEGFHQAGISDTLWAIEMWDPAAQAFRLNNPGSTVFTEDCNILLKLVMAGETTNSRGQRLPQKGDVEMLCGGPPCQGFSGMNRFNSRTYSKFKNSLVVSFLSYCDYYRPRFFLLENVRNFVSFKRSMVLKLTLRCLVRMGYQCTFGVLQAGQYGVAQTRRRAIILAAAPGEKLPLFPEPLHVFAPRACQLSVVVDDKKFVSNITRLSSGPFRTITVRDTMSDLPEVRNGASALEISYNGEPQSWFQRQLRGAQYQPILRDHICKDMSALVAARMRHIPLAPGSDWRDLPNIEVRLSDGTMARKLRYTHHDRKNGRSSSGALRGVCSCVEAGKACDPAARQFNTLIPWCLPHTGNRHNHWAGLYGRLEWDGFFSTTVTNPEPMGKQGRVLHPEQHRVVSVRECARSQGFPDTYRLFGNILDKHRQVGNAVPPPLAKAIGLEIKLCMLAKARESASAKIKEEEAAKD
Test: DNMT1 enzyme activity assay (TR-FRET, EPIgeneous methyltransferase assay)
Format: biochemical
pIC50: −log10 of the molar value.
Catalogue of pIC50 values

Worked examples follow.
COc1cc2c(NC3CCN(C)CC3)cc(C3=CCOCC3)nc2cc1OCCCN1CCCC1 [Compound 6-02] = 6.00 to 6.30
COc1cc2c(NC3CCN(C)CC3)cc(-c3ccc(C)o3)nc2cc1OC1CC2(CNC2)C1 [Compound 16-01] = 6.30 to 7.00
CCc1ccc(-c2cc(NCC3CCN(C4CC4)CC3)c3cc(OC)c(OCCCN4CCCC4)cc3n2)o1 [Compound 3-49] = 6.30 to 7.00

We now examine a further compound.
Record COc1cc2c(NC3CCN(C)CC3)cc(C)nc2cc1OCCCN1CCCC1 [Compound 3-23] . Reported pIC50: 6.00 to 6.30

---

Catalogue of pIC50 values
Target: human G9a enzyme (Homo sapiens, UniProt Q96KQ7)
Sequence (Q96KQ7 whole entry): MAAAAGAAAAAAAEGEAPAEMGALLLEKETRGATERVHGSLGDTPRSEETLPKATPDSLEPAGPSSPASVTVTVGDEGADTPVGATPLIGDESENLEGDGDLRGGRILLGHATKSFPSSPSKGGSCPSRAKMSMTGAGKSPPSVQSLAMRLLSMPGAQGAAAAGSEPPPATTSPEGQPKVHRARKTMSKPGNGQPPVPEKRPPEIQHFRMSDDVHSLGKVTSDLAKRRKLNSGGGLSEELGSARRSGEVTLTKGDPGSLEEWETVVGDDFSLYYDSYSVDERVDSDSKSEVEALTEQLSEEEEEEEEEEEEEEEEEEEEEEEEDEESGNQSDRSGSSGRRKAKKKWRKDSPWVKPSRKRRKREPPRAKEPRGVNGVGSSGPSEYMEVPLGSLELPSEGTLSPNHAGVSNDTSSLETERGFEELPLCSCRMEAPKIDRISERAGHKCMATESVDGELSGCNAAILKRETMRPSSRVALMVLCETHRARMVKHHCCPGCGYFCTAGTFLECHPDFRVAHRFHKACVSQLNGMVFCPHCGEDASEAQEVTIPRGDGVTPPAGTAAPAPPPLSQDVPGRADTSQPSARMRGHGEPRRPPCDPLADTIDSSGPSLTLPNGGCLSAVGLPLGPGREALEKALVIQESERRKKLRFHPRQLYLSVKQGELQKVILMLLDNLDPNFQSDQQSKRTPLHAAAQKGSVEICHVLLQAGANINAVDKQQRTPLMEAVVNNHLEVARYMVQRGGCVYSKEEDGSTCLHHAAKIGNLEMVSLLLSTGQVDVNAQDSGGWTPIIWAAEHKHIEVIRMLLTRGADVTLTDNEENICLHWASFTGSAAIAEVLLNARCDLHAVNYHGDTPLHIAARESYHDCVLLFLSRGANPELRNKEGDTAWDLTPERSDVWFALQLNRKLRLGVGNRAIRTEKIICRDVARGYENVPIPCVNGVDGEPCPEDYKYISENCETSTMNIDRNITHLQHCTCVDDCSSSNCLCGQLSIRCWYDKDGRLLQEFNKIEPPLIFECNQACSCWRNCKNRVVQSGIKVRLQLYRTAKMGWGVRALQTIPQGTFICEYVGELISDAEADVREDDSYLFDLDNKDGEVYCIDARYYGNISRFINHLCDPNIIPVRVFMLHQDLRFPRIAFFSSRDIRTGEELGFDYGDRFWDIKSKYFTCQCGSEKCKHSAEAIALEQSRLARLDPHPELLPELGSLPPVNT
Assay: G9a enzyme activity assay (TR-FRET)
Type: biochemical
pIC50: −log10 of the molar value.

COc1cc2c(NC3CCN(C)CC3)cc(-c3cc[nH]c(=O)c3)nc2cc1OCCCN1CCCC1 = 6.30 to 7.00
COc1cc2c(NCC3CCN(C)C(=O)C3)cc(-c3ccc(C)[nH]3)nc2cc1OCC1CCNCC1 (stereo not shown) = 6.00 to 6.30
CCNCc1ccc(-c2cc(NC3CCN(C)CC3)c3cc(OC)c(OCCCN4CCCC4)cc3n2)o1 = > 7.00

Record COc1cc2c(NC3CCN(C)CC3)cc(-c3ccc(C)s3)nc2cc1OCCCN1CCCC1 . Reported pIC50: > 7.00

Record COc1cc2c(NC3CCN(C)C(=O)C3)cc(-c3ccc(C)[nH]3)nc2cc1OCC1CCN(C)CC1 (stereo not shown) . Reported pIC50: 5.00 to 6.00

Record COc1cc2c(NC3CCN(C)CC3)cc(-c3ccc(C)[nH]3)nc2cc1OCC1CCNCC1 . Reported pIC50: > 7.00

Record COc1cc2c(NC3CCN(C)CC3)cc(-c3ccc(C)o3)nc2cc1OC1CCN(C(=O)OC(C)(C)C)CC1 . Reported pIC50: 5.00 to 6.00
